Could you please report measured Relative rate for the items listed next?
# Tested on: Pseudomonas sp. strain PED alcohol dehydrogenase
# methodSummary: PED alcohol dehydrogenase enzyme assay, reduction of carbonyl substrates (relative rates)
# Type: biochemical
Lab note: record just the number, no unit beside it.

Lab note: need Relative rate for `CC(=O)CCCCl` on Pseudomonas sp. strain PED alcohol dehydrogenase, anyone have it?
5

Continue with `CC(=O)C(=O)c1ccccc1`
34

Same again, this time with `CC(=O)C(Cl)C(C)=O`
336

# iterate: COC(=O)CC(=O)CCl [Compound 9, methyl 4-chloro-3-oxobutanoate]
4

And the next one, `C#CC(C)=O` ?
1

And the next one, `CCCCC(C)=O` ?
5

Further, for `O=C(CCl)CCl` ?
6

Here is the next compound: CC(=O)CCC=C(C)C [Compound 10, 6-methyl-5-hepten-2-one]
6

One more compound: `O=C(c1ccccc1)C(F)(F)F`
7

Now consider `CN(C)CCC(=O)c1ccccc1` and answer again.
8

Now consider `CCCC(C)=O` and answer again.
6

Continue with `CC(=O)CCC(C)=O`
9

Also `CC(C)[C@@H]1CC[C@@H](C)CC1=O` ?
3.4

Record: `CCC(C)=O`
100

Can you handle `COC(=O)CC(C)=O` next?
135

Here is the next compound: `O=C(CCCCl)c1ccc(F)cc1`
0

For CC(=O)CCC=C(C)C [Compound 23] then?
7

Next record, please: `CC(=O)/C=C/c1ccccc1`
0

Please do the same for CC(=O)C(C)Cl (stereo not drawn) as well.
11

====

# Tested on: Pseudomonas sp. strain PED alcohol dehydrogenase
# methodSummary: PED alcohol dehydrogenase enzyme assay, reduction of carbonyl substrates (relative rates)
# Format: biochemical
# appliedConditions: Table 1; reduction, 10 mM ketone, 0.45 mM NADH, PED, change in absorbance at 340 nm; Compound 2 = 1 (2.1 U/mg enzyme)
quantityKind: Relative rate
Provide a numeric answer; units are not to be included.

Tell me the measured Relative rate of `O=C(CC(=O)C(F)(F)F)c1cccs1` , please.
0

Same again, this time with `COc1coc(C(C)=O)c1OC`
0.6

And what about the molecule `O=C1CCCCc2ccccc21` ?
4

Likewise for `CC(=O)c1ccccc1` ?
1

Note, next up: `CC(=O)CCc1ccccc1`
6

====

Kindly supply the reported Relative rate values for the records listed here.
# Tested on: Pseudomonas sp. strain PED alcohol dehydrogenase
# methodSummary: PED alcohol dehydrogenase enzyme assay, reduction of carbonyl substrates (relative rates)
# Format: biochemical
# appliedConditions: Table 2; determined as described in Table 1 (10 mM ketone, 0.45 mM NADH, 340 nm)
The answer should be a number; do not append a unit.

Can you look up Relative rate on Pseudomonas sp. strain PED alcohol dehydrogenase for `CC(=O)CCC(=O)O` ?
0

What do you get for `CC1=CC(=O)CCC1` ?
0

Repeat with COC(=O)C1CCCC1=O (stereo not shown)
22

Would you mind doing O=C1CC2C=CC1C2 (stereo not shown) as well?
0

// same read-out, input: `O=C1CCSc2ccccc21`
0

Now try `CCCCCC(=O)CC` .
2

====

# System: Pseudomonas sp. strain PED alcohol dehydrogenase
# methodSummary: PED alcohol dehydrogenase enzyme assay, reduction of carbonyl substrates (relative rates)
# Assay type: biochemical
# appliedConditions: Table 2; determined as described in Table 1 (10 mM ketone, 0.45 mM NADH, 340 nm)
quantityKind: Relative rate
Number only, no unit.

For the molecule shown here, CO/C=C/C(C)=O [Compound 71] , give the reported Relative rate.
0

What about CC(=O)C(C)CO (stereo not shown) [Compound 68] ?
0

// repeat for CCCCCC(=O)C(=O)O [Compound 30] and report
0

Quick one: O=C1C=CCCC1 [Compound 42]
0

Now try C#CC(=O)CCC [Compound 39, 1-Hexyn-3-one] .
0

Try this molecule too: C=CCCC(C)=O [Compound 22]
8

Now the same for CC(=O)C1CC2C=CC1C2 (stereo not shown) [Compound 46]
0

Now consider CSC(C)C(C)=O (stereo not shown) [Compound 67] .
5

# iterate: CC1C(=O)CCC1=O [Compound 32]
0

Subsequent entry: COC(C)=CC(C)=O [Compound 24]
0

How about C#CC(=O)CCl [Compound 37] ?
2

Follow-up entry: CC(=O)c1c[nH]c2ccccc12 [Compound 53]
0

====

# System: Pseudomonas sp. strain PED alcohol dehydrogenase
# methodSummary: PED alcohol dehydrogenase enzyme assay, reduction of carbonyl substrates (relative rates)
# Assay type: biochemical
# appliedConditions: Table 2; determined as described in Table 1 (10 mM ketone, 0.45 mM NADH, 340 nm)
quantityKind: Relative rate
Answer with a bare number; do not write a unit.

Record request: Relative rate value, item CC(=O)C(C)O (stereo not shown)
2

Please do the same for `CCCCCC(C)=O` as well.
5

Now this one: `C=CC(=O)CCCCC`
6

# iterate: `CC(=O)COc1ccccc1`
7

// repeat for CC(=O)C1CCc2ccccc2C1=O (stereo not shown) and report
0

Same again, this time with `CCOC(=O)CC(=O)CC`
6

Follow-up entry: `COC(OC)C(C)=O`
5

Another: `CC(=O)C1CC1`
11

Param item: O=C1C2CCC(C2)C1Cl (stereo not shown)
2

Ok, now `CC(=O)c1ccc2c(c1)OCCO2`
0

Thanks! And `CC(=O)CC(C)=O` ?
32

Next up: `CC(=O)c1ccccn1`
1.8

====

# System: Pseudomonas sp. strain PED alcohol dehydrogenase
# methodSummary: PED alcohol dehydrogenase enzyme assay, reduction of carbonyl substrates (relative rates)
# Assay type: biochemical
# appliedConditions: Table 1; reduction, 10 mM ketone, 0.45 mM NADH, PED, change in absorbance at 340 nm; Compound 2 = 1 (2.1 U/mg enzyme)
Provide the reported Relative rate of each item.
Simply state the number, no unit and no words.

I would be grateful if you could share the reported Relative rate for `CC(=O)c1ccco1` .
0

And what about the compound O=C[C@@H]1C[C@H]1c1ccccc1 (relative stereo) ?
7

Can you handle `O=C(CCCCl)c1ccccc1` next?
4

Try this compound next: `O=C(CCCCl)c1cccs1`
4

Thanks! And COC(=O)C(=O)c1ccccc1 [Compound 4, methyl benzoylformate] ?
4

Next compound up: `CCCCCC(=O)CC`
3

Param item: `O=C(CCCCl)c1ccc(O)cc1`
0
